SYSTEM_NAME: CDK4 (Homo sapiens)
Sequence (P11802 whole entry): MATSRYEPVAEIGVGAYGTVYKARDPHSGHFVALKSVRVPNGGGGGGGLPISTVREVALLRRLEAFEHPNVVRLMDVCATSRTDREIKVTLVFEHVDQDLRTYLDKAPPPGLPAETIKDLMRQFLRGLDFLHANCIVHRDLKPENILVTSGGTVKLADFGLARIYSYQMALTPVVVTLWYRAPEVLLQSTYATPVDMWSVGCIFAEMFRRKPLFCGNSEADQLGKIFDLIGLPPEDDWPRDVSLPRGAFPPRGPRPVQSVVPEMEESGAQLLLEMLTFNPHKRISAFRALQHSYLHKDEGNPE
Sequence (P24385 whole entry partner): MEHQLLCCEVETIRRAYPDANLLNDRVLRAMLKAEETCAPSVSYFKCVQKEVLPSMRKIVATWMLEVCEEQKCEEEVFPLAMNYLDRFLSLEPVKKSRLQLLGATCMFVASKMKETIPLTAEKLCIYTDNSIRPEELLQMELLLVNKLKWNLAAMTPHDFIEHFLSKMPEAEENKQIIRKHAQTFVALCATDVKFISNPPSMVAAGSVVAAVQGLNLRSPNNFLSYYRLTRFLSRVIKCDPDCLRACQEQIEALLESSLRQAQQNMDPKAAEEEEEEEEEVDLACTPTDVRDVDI
METHOD_DESCRIPTION: CDK4 HTRF
Type: biochemical
CONDITION_PARAMETERS: Table 1; read-out: CDK4 HTRF
# IC50 annotations
READOUT_NAME: IC50

>>> print(df.to_string())
                                    compound          system_name  readout_name  recorded_value
 0  CC(C)c1[nH]ncc1-c1ccnc(NCc2cc(F)cc(F)c2)c1  CDK4 (Homo sapiens)          IC50          < 1 µM
 1  CCC(C)c1[nH]ncc1-c1ccnc(NC2CCc3ccccc32)c1 (stereo not shown)  CDK4 (Homo sapiens)          IC50          < 5 µM
 2       CC(C)c1[nH]ncc1-c1ccnc(Nc2ccccc2)c1  CDK4 (Homo sapiens)          IC50        < 0.1 µM
 3      CC(C)c1[nH]ncc1-c1ccnc(NCc2ccncc2)c1  CDK4 (Homo sapiens)          IC50          < 5 µM
 4  c1cncc(CCNc2cc(-c3cn[nH]c3C3CCCC3)ccn2)c1  CDK4 (Homo sapiens)          IC50        < 0.5 µM
 5       CC(C)c1[nH]ncc1-c1ccnc(NCCCN(C)C)c1  CDK4 (Homo sapiens)          IC50          < 5 µM
 6  CCC(C)c1[nH]ncc1-c1ccnc(NCc2ccccc2C)c1 (stereo not shown)  CDK4 (Homo sapiens)          IC50          < 1 µM
 7  FC(F)(F)c1ccccc1CNc1cc(-c2cn[nH]c2C2CCCC2)ccn1  CDK4 (Homo sapiens)          IC50         < 10 µM
 8      c1cc(-c2cn[nH]c2C2CCCC2)cc(NC2CC2)n1  CDK4 (Homo sapiens)          IC50        < 0.5 µM
 9   c1cc(-c2cn[nH]c2C2CCCC2)cc(NC2CCCCC2)n1  CDK4 (Homo sapiens)          IC50        < 0.5 µM
10      CC(C)c1[nH]ncc1-c1ccnc(NCC2CCNCC2)c1  CDK4 (Homo sapiens)          IC50         < 10 µM
11      CC(C)c1[nH]ncc1-c1ccnc(NCc2ccccc2)c1  CDK4 (Homo sapiens)          IC50          < 1 µM
12         CC(C)CNc1cc(-c2cn[nH]c2C(C)C)ccn1  CDK4 (Homo sapiens)          IC50        < 0.5 µM
13           CCCCNc1cc(-c2cn[nH]c2C(C)C)ccn1  CDK4 (Homo sapiens)          IC50        < 0.5 µM
14   Cc1ccc(CNc2cc(-c3cn[nH]c3C(C)C)ccn2)cc1  CDK4 (Homo sapiens)          IC50          < 5 µM
15  c1cc(-c2cn[nH]c2C2CCCC2)cc(NCCCN2CCOCC2)n1  CDK4 (Homo sapiens)          IC50          < 5 µM
16  c1cc(-c2cn[nH]c2C2CCCC2)cc(NC2CCCCCC2)n1  CDK4 (Homo sapiens)          IC50        < 0.5 µM
17     CC(C)c1[nH]ncc1-c1ccnc(NCCN2CCOCC2)c1  CDK4 (Homo sapiens)          IC50          < 5 µM
18     c1cc(-c2cn[nH]c2C2CCCC2)cc(NC2CCC2)n1  CDK4 (Homo sapiens)          IC50        < 0.5 µM
19  CCC(C)Nc1cc(-c2cn[nH]c2C(C)C)ccn1 (stereo not shown)  CDK4 (Homo sapiens)          IC50        < 0.5 µM
20    CN1CCC(Nc2cc(-c3cn[nH]c3C3CC3)ccn2)CC1  CDK4 (Homo sapiens)          IC50        < 0.5 µM
21  CC(C)c1[nH]ncc1-c1ccnc(NC(CO)C(C)C)c1 (stereo not shown)  CDK4 (Homo sapiens)          IC50        < 0.5 µM
22  Cc1ccccc1CNc1cc(-c2cn[nH]c2C2CCCCCC2)ccn1  CDK4 (Homo sapiens)          IC50          < 5 µM
23  c1ccc(CCNc2cc(-c3cn[nH]c3C3CCCC3)ccn2)cc1  CDK4 (Homo sapiens)          IC50        < 0.5 µM
24  Cc1ccccc1CNc1cc(-c2cn[nH]c2C(C)(C)C)ccn1  CDK4 (Homo sapiens)          IC50         < 10 µM
25  COc1ccc(CNc2cc(-c3cn[nH]c3C(C)C)ccn2)cc1  CDK4 (Homo sapiens)          IC50          < 5 µM
26  CC(C)(C)c1[nH]ncc1-c1ccnc(NC2CCc3ccccc32)c1 (stereo not shown)  CDK4 (Homo sapiens)          IC50         < 15 µM
27      CC(C)c1[nH]ncc1-c1ccnc(NCC2CCCCC2)c1  CDK4 (Homo sapiens)          IC50          < 5 µM
28     CC(C)c1[nH]ncc1-c1ccnc(NCCCn2ccnc2)c1  CDK4 (Homo sapiens)          IC50          < 5 µM
29           COCCNc1cc(-c2cn[nH]c2C(C)C)ccn1  CDK4 (Homo sapiens)          IC50          < 5 µM
30    CC(C)c1[nH]ncc1-c1ccnc(NCCCN2CCOCC2)c1  CDK4 (Homo sapiens)          IC50         < 10 µM
31     Cc1ccccc1CNc1cc(-c2cn[nH]c2C2CC2)ccn1  CDK4 (Homo sapiens)          IC50        < 0.1 µM
32  Cc1cccc(CNc2cc(-c3cn[nH]c3C3CCCC3)ccn2)c1  CDK4 (Homo sapiens)          IC50          < 5 µM
33         CC(C)c1[nH]ncc1-c1ccnc(NCC2CC2)c1  CDK4 (Homo sapiens)          IC50        < 0.5 µM
34      CC(C)c1[nH]ncc1-c1ccnc(NCCCCN(C)C)c1  CDK4 (Homo sapiens)          IC50          < 5 µM
35          COCCCNc1cc(-c2cn[nH]c2C(C)C)ccn1  CDK4 (Homo sapiens)          IC50          < 1 µM
36     CC(C)c1[nH]ncc1-c1ccnc(NCCCN2CCCC2)c1  CDK4 (Homo sapiens)          IC50         < 10 µM
37  c1ccc2c(c1)CC(Nc1cc(-c3cn[nH]c3C3CC3)ccn1)C2  CDK4 (Homo sapiens)          IC50        < 0.1 µM
38         CC(C)c1[nH]ncc1-c1ccnc(NC2CCC2)c1  CDK4 (Homo sapiens)          IC50        < 0.5 µM
39  CC(C)c1[nH]ncc1-c1ccnc(NCCC2CCCN2C)c1 (stereo not shown)  CDK4 (Homo sapiens)          IC50          < 5 µM
